Test: qHTS to identify inhibitors of the type 1 interferon - major histocompatibility complex class I in skeletal muscle: primary screen against the NCATS Mechanism Interrogation Plate v5.0 (MIPE) Libary (AID 1347411); further: nearly all actives have a fitted effect of over 65% in size
Conditions: iHSKM cells + IFN-b, HiBiT-tagged MHC-I luminescence, 24 h; series mostly up to 45.8 µM
Text: Assay Submitter (PI): Travis B. Kinder Ph.D. & James Inglese Ph.D. Assay Development and Screening Technology Laboratory (ADST) National Center for Advancing Translational Sciences (NCATS), Rockville, MD National Institute of Health (NIH), Bethesda, Maryland […] 7; Detector; 5 sec; Measure luminescence with ViewLux 1430 Ultra HTS (Perkin Elmer). […]
Results filed as inconclusive are left out. Calls of active or inactive are those of the source. The call rests on the fitted dose curve; in most records, active means well fitted inhibition curve with a large enough effect; inconclusive means small, poorly fitted or top-dose-only effect; inactive means no such curve, though single readings can be large or run the other way.
Outcomes: true (1) for active, false (0) for inactive

CC(C)(O)c1coc(S(=O)(=O)NC(=O)Nc2c3c(cc4c2CCC4)CCC3)c1 ... false (0)
COC(=O)C1=C(C)NC(c2ncc(F)cc2F)=N[C@H]1c1ccc(F)cc1Cl ... true (1)
N=C1S/C(=C\c2ccc(-c3ccc4c(c3)C(=O)NC4=O)o2)C(=O)N1c1ccc(Br)cc1 ... false (0)
CCOc1ccc(-n2c([C@@H](C)N(Cc3cccnc3)C(=O)Cc3ccc(F)c(C(F)(F)F)c3)nc3ncccc3c2=O)cc1 ... false (0)
O=C1S/C(=C\c2ccc(OCc3cccc(B(O)O)c3)cc2)C(=O)N1Cc1ccc(F)cc1 ... false (0)
CC1(N)CCN(c2cnc(-c3cccc(Cl)c3Cl)c(N)n2)CC1 ... false (0)
Nc1nccc2c1ncn2[C@@H]1C=C(CO)[C@@H](O)[C@H]1O ... false (0)
C=CC(=O)N1CCC(C2CCNc3c(C(N)=O)c(-c4ccc(Oc5ccccc5)cc4)nn32)CC1 (centres undefined) ... false (0)
Cc1ccc(-n2c(C)cc(-c3nnc4n3CCCCC4)c2C)cc1 ... false (0)
CC(/C=C1\SC(=S)N(CC(=O)O)C1=O)=C\c1ccccc1 ... false (0)
COC(=O)N(CC(=O)O)Cc1cccc(OCc2nc(-c3ccc(Cl)cc3)oc2C)c1 ... false (0)
C[C@H](NC(=O)/C(C#N)=C/c1cccc(Br)n1)c1ccccc1 ... true (1)
CC(=O)NCC(=O)N1[C@@H]2CC[C@H]1c1ccc(Nc3ncc(C(F)(F)F)c(NC4CCC4)n3)cc12 ... true (1)
COc1ccc2c(c1)C(c1ccc(F)cc1)=C(CN1CCCC1)CO2 ... false (0)
Cc1c(-c2c(-c3ccc(F)o3)sc3ncnc(O[C@@H](Cc4ccccc4OCc4ccnn4CC(F)(F)F)C(=O)O)c23)ccc(OCCN2CCN(C)CC2)c1Cl ... false (0)
COc1ccc(S(=O)(=O)N[C@@H](CNc2nc(C)nc(N3CCC(c4ccc5c(n4)NCCC5)CC3)c2C)C(=O)O)cc1 ... false (0)
CCN1C(=O)CNc2ncc(-c3ccc(-c4ncn[nH]4)nc3C)nc21 ... true (1)
NS(=O)(=O)c1ccc(NC(=S)N2CCN(C/C=C/c3ccccc3)CC2)cc1 ... false (0)
CC(=O)c1cc2c(o1)C(=O)c1ccccc1C2=O ... true (1)

----------
test: Primary qHTS for inhibitors of nuclear receptor binding SET domain protein 2 (NSD2) in an isogenic RCH-ACV NSD2 p.E1099K mutant (9B) (AID 1645876); conditions: RCH-ACV (leukaemia line) NSD2 E1099K (9B) viability, CellTiter-Glo, 72 h; series mostly up to 44.9 µM; further: nearly all actives have a fitted effect of over 70% in size
Inconclusive results are not listed. Calls of active or inactive are those of the source. Calls follow the shape of the dose curve; as a rule, active = well fitted inhibition curve with a large enough effect; inconclusive = small, poorly fitted or top-dose-only effect; inactive = flat fitted curve, though single readings scatter. Where a SMILES comes first, the peptide text is derived from it. [ ]: non-standard residue; d: D form. The star is where a group is joined. Benzoyl(4-tBu) = CC(C)(C)c1ccc(C(=O)*)cc1; Lys(Et2) = CCN(CC)CCCC[C@H](N)C(=O)O
Outcomes: active, inactive

CCS(=O)(=O)Nc1ccc(Oc2ccc(F)cc2F)c(-c2cn(C)c(=O)c3[nH]ccc23)c1 ... active
C=CC(=O)N1CC/C(=C\c2ccc(F)c([N+](=O)[O-])c2)C(=O)/C(=C/c2ccc(F)c([N+](=O)[O-])c2)C1 ... active
CC(C)NCCCn1c(Sc2cc(Cl)cc(Cl)c2)nc2c(N)ncnc21 ... active
CO[C@H]1/C=C/O[C@@]2(C)Oc3c(C)c(O)c4c(O)c(c5c(nc6cc(C)ccn65)c4c3C2=O)NC(=O)/C(C)=C\C=C\[C@H](C)[C@H](O)[C@@H](C)[C@@H](O)[C@@H](C)[C@H](OC(C)=O)[C@@H]1C ... active
C=CC(=O)N1CC(N2CCN(C(=O)CNc3cc(C4(C)CC4)c(Cl)cc3O)CC2)C1 ... active
CC(C)(C)c1[nH]cnc1/C=c1\[nH]c(=O)/c(=C/c2ccccc2)[nH]c1=O ... active
COc1nnc2ccc(N3CCC(c4ccc(OCCN5CCN(C)C(=O)[C@H]5C)cc4)CC3)nn12 ... active
CC1(N)CCN(c2cnc(-c3cccc(Cl)c3Cl)c(N)n2)CC1 ... inactive
Nc1nc(-c2nn(Cc3ccccc3F)c3ncccc23)ncc1C1CC1 ... active
N=C1S/C(=C\c2ccc(-c3ccc4c(c3)C(=O)NC4=O)o2)C(=O)N1c1ccc(Br)cc1 ... inactive
CN1C(N)=N[C@](C)(c2cc(NC(=O)c3ccc(F)cn3)ccc2F)CS1(=O)=O ... inactive
O=C1OC2(CCC(C(=O)Nc3ccn(-c4ccccc4F)n3)CC2)c2cnccc21 (configuration not stated) ... inactive
COc1cc(N2CCN(C)CC2)ccc1Nc1ncc2c(n1)N(C)c1ccccc1C(=O)N2C ... active
CCN(CC)CCCC[C@H](NC(=O)[C@H](CC(C)C)NC(=O)[C@H](C)NC(=O)[C@H](Cc1ccccc1)NC(=O)c1ccc(C(C)(C)C)cc1)C(=O)N[C@@H](CO)C(=O)OC ({Benzoyl(4-tBu)}-FAL[Lys(Et2)]S-OMe) ... inactive
CN(C)C[C@@H]1CCn2cc(c3ccccc32)C2=C(C(=O)NC2=O)c2cn(c3ccccc23)CCO1 ... active
C[C@@]1(c2ncncc2F)NC(=O)c2cc(-c3cn[nH]c3)ccc21 ... active
CCS(=O)(=O)c1ccc2oc(-c3ccc4ccccc4c3)nc2c1 ... inactive
